- targetSystem: Full-length inactive AKT1 (Homo sapiens)
- experiment: Inactive Akt Alpha Screen Assay
- Format: biochemical
- conditionSummary: values not marked with "*"; read-out: Akt1 IC50, (AlphaScreen)
property: IC50 (nM)

compound="Nc1ncccc1-c1nc2ccc(-c3cccnc3)nc2n1-c1ccc(NC(=O)c2ccccc2)cc1 [Example 255]" recordedvalue=12

[1] Nc1ncccc1-c1nc2ccc(-c3ccccc3)nc2n1-c1ccc(C2(C(=O)NCCO)CCC2)cc1 [Example 379]
[2] Nc1ncccc1-c1nc2ccc(-c3cc[nH]n3)nc2n1-c1ccc(C2(N)CCC2)cc1 [Example 418]
Query: Hi there, can you help? I need to know whether 1 or 2 has lower measured IC50. Reply briefly: the label of your chosen item.
Response: 2
(2: 8.2 nM, 1: 290 nM)

[I] Nc1ncccc1-c1nc2ccc(-c3c[nH]c(=O)[nH]c3=O)nc2n1-c1ccc(CNC(=O)c2cccc(F)c2)cc1 [Example 311]
[II] Nc1ncccc1-c1nc2ccc(-c3ccccc3)nc2n1-c1ccc(C2(N)COC2)cc1 [Example 373]
[III] CC(C)(C)OC(=O)NC1(c2ccc(-n3c(-c4cccnc4N)nc4ccc(-c5ccccc5)nc43)cc2)CCC1 [Example 350]
Query: // sort entries: IC50, high to low # list labels per requested ordering
Response: III, I, II
(III: 1400 nM, I: 29 nM, II: 6.6 nM)

---

- Test system: AN3CA
- experiment: MTS Assay, cell proliferation, AN3CA
- Type: cell-based
- conditionSummary: Homo sapiens, AN3-CA, read-out: Average of [CELL], IC50, MTS (72 hours; 10 Percent; FBS) AN3CA
A collection of compounds and their measured pIC50
Would you please state pIC50, meaning minus log10 of the concentration in mol/L, as a bare number?

substancesmiles=CCCCNC(=O)Cc1ccc(-n2c(-c3cccnc3N)nc3ccc(-c4cccc(NC(C)=O)c4)nc32)cc1 property=pIC50 recordedvalue=5.19
substancesmiles=Nc1ncccc1-c1nc2ccc(-c3cccnc3)nc2n1-c1ccc(CNC(=O)c2cccc(F)c2)cc1 property=pIC50 recordedvalue=4.92

Query: Let me know recorded pIC50 for `Cc1cnc2c(c1)nc(-c1cccnc1N)n2-c1ccc(CC(=O)Nc2ccc3ncccc3c2)cc1` , thanks.
Response: 5.48

Query: Let me know recorded pIC50 for `Nc1ncccc1-c1nc2ccc(-c3cccc(CO)c3)nc2n1-c1ccc(CNC(=O)c2cccc(F)c2)cc1` , thanks.
Response: 5.60

Query: Let me know recorded pIC50 for `CC(=O)Nc1cccc(NC(=O)Cc2ccc(-n3c(-c4cccnc4N)nc4ccc(-c5cccc(NC(C)=O)c5)nc43)cc2)c1` , thanks.
Response: 4.92

Query: Let me know recorded pIC50 for `CC(=O)Nc1cccc(-c2ccc3nc(-c4cccnc4N)n(-c4ccc(CC(=O)NC(C)C)cc4)c3n2)c1` , thanks.
Response: 4.92

Query: Let me know recorded pIC50 for `CC(=O)Nc1ccc(-c2ccc3nc(-c4cccnc4N)n(-c4ccc(CNC(=O)c5ccc(C)c(F)c5)cc4)c3n2)cc1` , thanks.
Response: 5.64

Query: Let me know recorded pIC50 for `Nc1ncccc1-c1nc2ccc(-c3ccccc3)nc2n1-c1ccc(C2(N)CCC2)cc1` , thanks.
Response: 6.21

Query: Let me know recorded pIC50 for `CC(=O)Nc1cccc(-c2ccc3nc(-c4cccnc4N)n(-c4ccc(CC(=O)Nc5cccc(F)c5)cc4)c3n2)c1` , thanks.
Response: 5.77

Query: Let me know recorded pIC50 for `CC(=O)Nc1cccc(-c2ccc3nc(-c4cccnc4N)n(-c4ccc(CNS(=O)(=O)c5ccccc5)cc4)c3n2)c1` , thanks.
Response: 5.30

Query: Let me know recorded pIC50 for `Nc1ncccc1-c1nc2ccc(-c3ccoc3)nc2n1-c1ccc(CNC(=O)c2cccc(F)c2)cc1` , thanks.
Response: 5.20

Query: Let me know recorded pIC50 for `CC(=O)Nc1cccc(-c2ccc3nc(-c4cccnc4N)n(-c4ccc(CC(=O)Nc5ccccc5)cc4)c3n2)c1` , thanks.
Response: 5.66

Query: Let me know recorded pIC50 for `CC(=O)Nc1cccc(-c2ccc3nc(-c4cccnc4N)n(-c4ccc(CNC(=O)c5ccccc5)cc4)c3n2)c1` , thanks.
Response: 5.82

Query: Let me know recorded pIC50 for `Nc1ncccc1-c1nc2ccc(-c3cn[nH]c3)nc2n1-c1ccc(CNC(=O)c2cccc(F)c2)cc1` , thanks.
Response: 4.92

Query: Let me know recorded pIC50 for `CC(=O)Nc1cccc(-c2ccc3nc(-c4cccnc4N)n(-c4ccc(CC(=O)Nc5ccc6nc(C)ccc6c5)cc4)c3n2)c1` , thanks.
Response: 5.96

---

- targetSystem: Full-length inactive AKT1 (Homo sapiens, UniProt P31749)
- Sequence (P31749 whole entry): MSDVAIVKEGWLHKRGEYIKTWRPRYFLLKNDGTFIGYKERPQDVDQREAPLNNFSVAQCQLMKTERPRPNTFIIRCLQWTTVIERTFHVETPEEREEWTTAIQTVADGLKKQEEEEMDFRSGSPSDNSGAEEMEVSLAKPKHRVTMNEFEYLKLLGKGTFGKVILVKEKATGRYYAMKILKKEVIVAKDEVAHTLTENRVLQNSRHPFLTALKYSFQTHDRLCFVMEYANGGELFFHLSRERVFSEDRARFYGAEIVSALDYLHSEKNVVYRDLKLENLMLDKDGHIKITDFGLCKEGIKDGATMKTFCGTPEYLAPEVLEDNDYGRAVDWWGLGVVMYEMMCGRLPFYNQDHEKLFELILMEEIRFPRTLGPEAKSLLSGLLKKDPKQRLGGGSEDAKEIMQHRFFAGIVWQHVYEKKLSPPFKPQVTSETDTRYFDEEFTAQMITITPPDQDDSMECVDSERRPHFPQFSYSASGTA
- experiment: Inactive Akt Alpha Screen Assay
- Type: biochemical
- conditionSummary: values not marked with "*"; read-out: Akt1 IC50, (AlphaScreen)
pIC50: −log10 of the molar value.
property: pIC50

substancesmiles=CNC(=O)C1(c2ccc(-n3c(-c4cccnc4N)nc4ccc(-c5ccccc5)nc43)cc2)CCC1 recordedvalue=7.03

[a] Nc1ncccc1-c1nc2ccc(-c3ccc(O)cc3)nc2n1-c1ccc(C2(N)CCC2)cc1
[b] Nc1ncccc1-c1nc2ccc(-c3cccc(N4CCCCC4)c3)nc2n1-c1ccc(C2(N)CCC2)cc1
Query: Given a and b , report the one with the higher recorded pIC50. Reply briefly: the label of your chosen item.
Response: a
(a: 8.03, b: 7.74)

---

- targetSystem: Full-length inactive AKT1 (Homo sapiens, UniProt P31749)
- experiment: Inactive Akt Alpha Screen Assay
- Type: biochemical
- conditionSummary: AlphaScreen assay (values not marked with *); read-out: Akt1 IC50, (AlphaScreen) (μM) (or if marked with “*” HTRF assay)
property: IC50 (µM)

compound="CCNC(=O)c1cccc(-c2ccc3nc(-c4cccnc4N)n(-c4ccc(C5(N)CCC5)cc4)c3n2)c1 [Example 441]" recordedvalue=0.0066

[P] Nc1ncccc1-c1nc2ccc(-c3cccc(-n4cccn4)c3)nc2n1-c1ccc(C2(N)CCC2)cc1 [Example 456]
[Q] Nc1ncccc1-c1nc2ccc(-c3c[nH]c4ccncc34)nc2n1-c1ccc(C2(N)CCC2)cc1 [Example 446]
Query: Given P and Q , report the one with the higher recorded IC50. Reply briefly: the label of your chosen item.
Response: Q
(Q: 0.0089 µM, P: 0.0031 µM)

[P] Nc1ncccc1-c1nc2ccc(-c3cccc(O)c3F)nc2n1-c1ccc(C2(N)CCC2)cc1 [Example 445]
[Q] CN1C(=O)COc2ccc(-c3ccc4nc(-c5cccnc5N)n(-c5ccc(C6(N)CCC6)cc5)c4n3)cc21 [Example 438]
Query: Given P and Q , report the one with the higher recorded IC50. Reply briefly: the label of your chosen item.
Response: P

[P] CNC(=O)c1ccc(-c2ccc3nc(-c4cccnc4N)n(-c4ccc(C5(N)CCC5)cc4)c3n2)cc1F [Example 450]
[Q] Nc1ncccc1-c1nc2ccc(-c3ccc(O)nc3)nc2n1-c1ccc(C2(N)CCC2)cc1 [Example 447]
[R] Nc1ncccc1-c1nc2ccc(-c3ccc(O)c(F)c3)nc2n1-c1ccc(C2(N)CCC2)cc1 [Example 434]
[S] Nc1ncccc1-c1nc2ccc(-c3ccnc(N4CCOCC4)c3)nc2n1-c1ccc(C2(N)CCC2)cc1 [Example 439]
Query: // sort entries: IC50, high to low # list labels per requested ordering
Response: Q, P, R, S
(Q: 0.045 µM, P: 0.0072 µM, R: 0.005 µM, S: 0.0026 µM)

---

- targetSystem: Full-length inactive AKT1 (Homo sapiens, UniProt P31749)
- experiment: Inactive Akt Alpha Screen Assay
- Format: biochemical
- conditionSummary: values not marked with "*"; read-out: Akt1 IC50, (AlphaScreen)
property: IC50 (nM)

molecule="Cc1cnc2c(c1)nc(-c1cccnc1N)n2-c1ccc(CNC(=O)C2CCCC2)cc1 [Example 273]" targetsystem="Full-length inactive AKT1 (Homo sapiens, UniProt P31749)" property=IC50 measurementunit=nM recordedvalue=220

[P] Cc1cnc2c(c1)nc(-c1cccnc1N)n2-c1ccc(CNC(=O)c2cc(F)ccc2F)cc1 [Example 283]
[Q] Nc1ncccc1-c1nc2ccc(-c3ccc(N4CCOCC4)nc3)nc2n1-c1ccc(C2(N)CCC2)cc1 [Example 404]
Query: Hi there, can you help? I need to know whether P or Q has lower measured IC50. Reply briefly: the label of your chosen item.
Response: Q
(Q: 7.8 nM, P: 220 nM)

---

- targetSystem: Full-length inactive AKT1 (Homo sapiens)
- experiment: Inactive Akt Alpha Screen Assay
- Type: biochemical
- conditionSummary: values not marked with "*": AlphaScreen assay; read-out: Akt1 IC50, (AlphaScreen)
property: IC50 (nM)

// below: answered compounds
compound="Nc1ncccc1-c1nc2cc(Br)cnc2n1-c1ccc(CNS(=O)(=O)c2ccccc2Cl)cc1 [Example 147]" targetsystem="Full-length inactive AKT1 (Homo sapiens)" property=IC50 recordedvalue=440
compound="Nc1ncccc1-c1nc2cccnc2n1-c1ccc(CNC(=O)c2ccccc2-n2cccc2)cc1 [Example 78]" targetsystem="Full-length inactive AKT1 (Homo sapiens)" property=IC50 recordedvalue=307
compound="CC(C)(C)C(=O)NCc1ccc(-n2c(-c3cccnc3N)nc3cccnc32)cc1 [Example 52]" targetsystem="Full-length inactive AKT1 (Homo sapiens)" property=IC50 recordedvalue=2770

[1] Nc1ncccc1-c1nc2cc(Br)cnc2n1-c1ccc(CNS(=O)(=O)c2cccs2)cc1 [Example 155]
[2] Nc1ncccc1-c1nc2cc(Br)cnc2n1-c1ccc(CNS(=O)(=O)C2CCCCC2)cc1 [Example 151]
Query: Given 1 and 2 , report the one with the higher recorded IC50. Reply briefly: the label of your chosen item.
Response: 2

[1] Nc1ncccc1-c1nc2cccnc2n1-c1ccc(CNC(=O)C2Cc3ccccc3C2)cc1 [Example 75]
[2] Cc1noc(C)c1S(=O)(=O)NCc1ccc(-n2c(-c3cccnc3N)nc3cc(Br)cnc32)cc1 [Example 154]
[3] Nc1ncccc1-c1nc2cccnc2n1-c1ccc(CNC(=O)CC2CCCC2)cc1 [Example 73]
[4] CNS(=O)(=O)Cc1ccc(-n2c(-c3cccnc3N)nc3cccnc32)cc1 [Example 13]
[5] Nc1ncccc1-c1nc2cccnc2n1-c1ccc(CNC(=O)c2ccccn2)cc1 [Example 19]
Query: Rank items: key IC50, increasing. # list labels per requested ordering
Response: 1, 5, 4, 2, 3
(1: 179 nM, 5: 344 nM, 4: 507 nM, 2: 1200 nM, 3: 2610 nM)

[A] CNc1ccccc1C(=O)NCc1ccc(-n2c(-c3cccnc3N)nc3cccnc32)cc1 [Example 57]
[B] Nc1ncccc1-c1nc2cc(-c3cncnc3)cnc2n1-c1ccc(CNC(=O)c2ccccc2)cc1 [Example 142]
Query: Given A and B , report the one with the higher recorded IC50. Reply briefly: the label of your chosen item.
Response: A
(A: 1520 nM, B: 190 nM)

All figures here come from patent US8501770B2.
